observation-type: melting point

[
  {
    "compound": "O=C(CCCCCCN(Cc1ccccc1)C(=O)c1cn2c3c(cccc13)CCC2)NO [compound 14]",
    "melting point": "71 to 73 °C"
  },
  {
    "compound": "O=C(NO)c1ccc(CNC(=O)c2cn3c4c(cccc24)CCC3)cc1 [compound 6]",
    "melting point": "191 to 192 °C"
  },
  {
    "compound": "O=C(CCCCCNC(=O)Nc1cn2c3c(cccc13)CCC2)NO [compound 13]",
    "melting point": "161 to 163 °C"
  },
  {
    "compound": "O=C(CCCCCNC(=O)C(=O)c1cn2c3c(cccc13)CCC2)NO [compound 8]",
    "melting point": "150 to 155 °C"
  },
  {
    "compound": "O=C(CCC1CCN(C(=O)c2cn3c4c(cccc24)CCC3)CC1)NO [compound 18]",
    "melting point": "110 to 113 °C"
  },
  {
    "compound": "Nc1cc(Cl)c(Cl)cc1NC(=O)CCCCCCNC(=O)c1cn2c3c(cccc13)CCC2 [compound 21]",
    "melting point": "124 to 125 °C"
  }
]

// next item, melting point requested
Bench note: what melting point did O=C(CCCNC(=O)C(=O)c1cn2c3c(cccc13)CCC2)NO [compound 9] show?
95 to 97 °C

====

observation-type: melting point

Some compounds with known melting point results, for comparison:
[
  {
    "compound": "O=C(CCCCCCNC(=O)Nc1cn2c3c(cccc13)CCC2)NO [compound 11]",
    "melting point": "185 to 187 °C"
  },
  {
    "compound": "O=C(CCCCCCNC(=O)c1cc2cccc3c2n1CCC3)NO [compound 23]",
    "melting point": "160 to 161 °C"
  },
  {
    "compound": "O=C(CCCCCCNC(=O)c1cn2c3c(cccc13)CCC2)NO [compound 3]",
    "melting point": "205 to 206 °C"
  },
  {
    "compound": "O=C(CCCCCCNC(=O)C(=O)c1cn2c3c(cccc13)CCC2)NO [compound 12]",
    "melting point": "158 to 159 °C"
  }
]

Bench note: what melting point did O=C(CCCCCCCNC(=O)c1cn2c3c(cccc13)CCC2)NO show?
174 to 176 °C

Again, but for O=C(Cc1ccc(NC(=O)c2cn3c4c(cccc24)CCC3)cc1)NO [compound 16]
199 to 202 °C

Again, but for Nc1ccccc1NC(=O)CCCCCCNC(=O)c1cn2c3c(cccc13)CCC2 [compound 20]
144 to 145 °C

Again, but for COc1cccc(-c2cn3cc(C(=O)NCCCCCCC(=O)NO)sc3n2)c1 [compound 22]
209 to 211 °C

Again, but for O=C(CCCCNC(=O)c1cn2c3c(cccc13)CCC2)NO [compound 5]
179 to 181 °C

====

test system: MJ cells; assay: MTS cell viability assay, MJ; assay type: cell-based; conditions: 72 hr, read-out: MJ, IG50, MTS
Measured pIC50 of individual entries
pIC50 is a log-scale quantity: -log10 of the concentration expressed in molar.

[
  {
    "compound": "O=C(CCCCCCNC(=O)c1cn2c3c(cccc13)CCC2)NO [compound 3]",
    "pIC50": 6.92
  },
  {
    "compound": "O=C(CCC1CCN(C(=O)c2cn3c4c(cccc24)CCC3)CC1)NO [compound 18]",
    "pIC50": 6.41
  },
  {
    "compound": "O=C(CCCCCCNC(=O)C(=O)c1cn2c3c(cccc13)CCC2)NO [compound 12]",
    "pIC50": 6.89
  },
  {
    "compound": "O=C(NO)c1ccc(CNC(=O)c2cn3c4c(cccc24)CCC3)cc1 [compound 6]",
    "pIC50": 6.24
  },
  {
    "compound": "O=C(CCCNC(=O)C(=O)c1cn2c3c(cccc13)CCC2)NO [compound 9]",
    "pIC50": 5.39
  },
  {
    "compound": "O=C(CCCCCCNC(=O)Nc1cn2c3c(cccc13)CCC2)NO [compound 11]",
    "pIC50": 6.33
  },
  {
    "compound": "O=C(CCCCCNC(=O)C(=O)c1cn2c3c(cccc13)CCC2)NO [compound 8]",
    "pIC50": 5.11
  }
]

// next item, pIC50 requested
Bench note: what pIC50 did O=C(CCCCCNC(=O)c1cn2c3c(cccc13)CCC2)NO [compound 2] show?
5.30
